All values here come from patent US20180207228A1.

- Tested target: 25 HLA Class II alleles (purified class II MHC molecules)
- Experiment: competitive radiolabelled-peptide binding to purified HLA class II (25 alleles, binder if IC50 <300 nM); worldwide phenotypic coverage of the alleles found to bind
Where no end group is shown, it is not given here.
Metric name: Measured binding coverage 25 alleles (%)

FAVVDLNKMRAVWVDGKART [peptide 224 (Phl p 4, 101)] ... 99
AGYTPAAPAGAEPAGKATTE [peptide 228 (Phl p 5, 1)] ... 69
GFGMLLRKYGIAAENVIDVK [peptide 225 (Phl p 4, 163)] ... 98
YHFDLSGHAFGAMAKKGDEQ [peptide 205 (Phl p 1, 103)] ... 88
EAKYDAYVATLSEALRIIAG [peptide 233 (Phl p 5, 104)] ... 99
GRGSGSSFEIKSTKPEASSG [peptide 202 (Phl p 1, 66)] ... 84
STGGAYESYKFIPALEAAVK [peptide 238 (Phl p 5, 185)] ... 99
PANDKFTVFEAAFNNAIKAS [peptide 237 (Phl p 5, 166)] ... 99
YIITPTNVSHIQSAVVSGRR [peptide 223 (Phl p 4, 55)] ... 99
KKPEVKYAVFEAALTKAIT (not fully specified) [peptide 143, Lol p 5a (Rye09B2)] ... 99
DKYRTFVATFGAASNKAFAE [peptide 231 (Phl p 5, 46)] ... 99
TPFPHRKGVLFNIQYVNYWF [peptide 227 (Phl p 4, 386)] ... 97
GSDPKKLVLNIKYTRPGDSL [peptide 217 (Phl p 3, 11)] ... 98
TSKLDAAYKLAYKTAEGATP [peptide 232 (Phl p 5, 84)] ... 93
KDKWIELKESWGAIWRIDTP [peptide 210 (Phl p 1, 183)] ... 92
EPLQGPFNFRFLTEKGMKNV [peptide 216 (Phl p 2, 58)] ... 92
AGELELQFRRVKSKYPEGTK [peptide 207 (Phl p 1, 127)] ... 71
